Experiment: xn = mol fraction of the nth substance listed
Details: 323.15 K; 101 kPa; Liquid; x1 = 0.9844
METRIC NAME: mass density (kg/m3)

Task item: Which measured mass density value corresponds to OCCN1CCOCC1 [4-morpholineethanol] + CCO ?
Reply: 1050.45

Task item: Record request: mass density value, item OCCN1CCOCC1 [4-morpholineethanol] + CC(C)O
Reply: 1050.96

Task item: Reported mass density for OCCN1CCOCC1 [4-morpholineethanol] + CCC(C)O : what is it?
Reply: 1050.18

Task item: Can you share its mass density? I mean this compound: OCCN1CCOCC1 [4-morpholineethanol] + CCCCO
Reply: 1050.07
